Test system: Lu1
Assay: Cytotoxicity against human Lu1 cells
Type: functional
Conditions: read-out: ED50 (the source's name)
Kindly supply the reported EC50 values for the records listed here.
Note: unit µg/mL is implicit; provide only the numeric part.

Prompt: Reported EC50 for `COc1c(O)cc2oc(-c3ccc(O)cc3)cc(=O)c2c1O` : what is it?
Response: 17.6

Prompt: Reported EC50 for `O=c1cc(-c2ccc(O)cc2)oc2cc(O)cc(O)c12` : what is it?
Response: 14

Prompt: Reported EC50 for C[C@H]1CC=C2C(CO)(CO)CCC[C@]2(C)C1CC[C@@H](CCO)COC(=O)/C=C/c1ccc(O)cc1 (stereo partly specified) : what is it?
Response: 13.1

---

Test: Cytotoxicity against human BC1 cells
Type: functional
Conditions: read-out: ED50 (the source's name)
Kindly supply the reported EC50 values for the records listed here.

Prompt: Reported EC50 for `C=C1CC[C@@H]2[C@H]([C@H]3[C@H]1CC[C@]3(C)O)C2(C)C` : what is it?
Response: > 20 µg/mL

Prompt: Reported EC50 for `O=c1cc(-c2ccc(O)cc2)oc2cc(O)cc(O)c12` : what is it?
Response: > 20 µg/mL

Prompt: Reported EC50 for `C[C@@H]1CC[C@@]23COC(=O)[C@H]2C[C@@H](O)C=C3[C@@]1(C)CCc1ccoc1` : what is it?
Response: > 20 µg/mL

Prompt: Reported EC50 for CC(=O)O[C@@H]1C=C2C(=O)OC[C@]23CC[C@@H](C)[C@](C)(CCC2=CC(=O)OC2)C3C1 (stereo partly specified) [ARTICULIN ACETATE] : what is it?
Response: > 20 µg/mL

Prompt: Reported EC50 for `COc1c(O)cc2oc(-c3ccc(O)cc3)cc(=O)c2c1O` : what is it?
Response: 19 µg/mL

Prompt: Reported EC50 for C[C@H]1CC=C2C(CO)(CO)CCC[C@]2(C)C1CC[C@@H](CCO)COC(=O)/C=C/c1ccc(O)cc1 (stereo partly specified) : what is it?
Response: 19 µg/mL

---

Kindly supply the reported EC50 values for the records listed here.
Test: Cytotoxicity against human KBV1 cells
Format: functional
Conditions: KB-V1, read-out: ED50 (the source's name)
Note: unit µg/mL is implicit; provide only the numeric part.

Prompt: Reported EC50 for COc1c(O)cc2oc(-c3ccc(O)cc3)cc(=O)c2c1O [HISPIDULIN] : what is it?
Response: 2.8

Prompt: Reported EC50 for O=c1cc(-c2ccc(O)cc2)oc2cc(O)cc(O)c12 [APIGENIN] : what is it?
Response: 16.8

Prompt: Reported EC50 for C[C@H]1CC=C2C(CO)(CO)CCC[C@]2(C)C1CC[C@@H](CCO)COC(=O)/C=C/c1ccc(O)cc1 (stereo partly specified) [GUADICHAUDOL C] : what is it?
Response: 4.7

---

Tested on: P388
Assay: Cytotoxicity against mouse P388 cells
Type: functional
Conditions: read-out: ED50 (the source's name)
Kindly supply the reported EC50 values for the records listed here.
Note: unit µg/mL is implicit; provide only the numeric part.

Prompt: Reported EC50 for C[C@H]1CC=C2C(CO)(CO)CCC[C@]2(C)C1CC[C@@H](CCO)COC(=O)/C=C/c1ccc(O)cc1 (stereo partly specified) : what is it?
Response: 2.4

Prompt: Reported EC50 for CC(=O)O[C@@H]1C=C2C(=O)OC[C@]23CC[C@@H](C)[C@](C)(CCC2=CC(=O)OC2)C3C1 (stereo partly specified) [ARTICULIN ACETATE] : what is it?
Response: 1.7

Prompt: Reported EC50 for `C[C@@H]1CC[C@@]23COC(=O)[C@H]2C[C@@H](O)C=C3[C@@]1(C)CCc1ccoc1` : what is it?
Response: 11.7

Prompt: Reported EC50 for `O=c1cc(-c2ccc(O)cc2)oc2cc(O)cc(O)c12` : what is it?
Response: 12.2

Prompt: Reported EC50 for `COc1c(O)cc2oc(-c3ccc(O)cc3)cc(=O)c2c1O` : what is it?
Response: 0.8

Each recorded value in this set is attributed to ChEMBL document CHEMBL1149072.
